system: murine neural precursor cells (neurosphere cultures); assay: HTS of LOPAC library against secondary neurosphere cultures, MTT proliferation assay at 3 μM, day 7 (z score, P value); type: cell-based, mouse; settings: LOPAC primary screen, neurosphere MTT proliferation, 3 μM, day 7
Metric Name: Z score

> print(dat)
                                   molecule  metric.name  observed.measurement
1  CCCCCCCCCCCCCCCCCC(=O)OC(CC(=O)O)C[N+](C)(C)C.[Cl-] (racemic) [DL-Stearoylcarnitine chloride]      Z score                 0.638
2   CC[N+](CC)(CC)CC(=O)Nc1c(C)cccc1C.[Br-]      Z score                 0.265
3  CNC(=O)OCC[N+](C)(C)C.[Cl-] [Methylcarbamylcholine chloride]      Z score                 1.913
4  CC(=O)[C@H]1CC[C@H]2[C@@H]3CCC4=CC(=O)CC[C@]4(C)[C@H]3CC[C@]12C [Progesterone]      Z score                 0.425
5  OC[C@H]1O[C@@H](n2cnc3c(NC4CCCCC4)ncnc32)[C@H](O)[C@@H]1O [N6-Cyclohexyladenosine]      Z score                −2.883
6  Cl.NCCNC(=O)c1ncsc1-c1cccc(F)c1 [Ro 41-1049 hydrochloride]      Z score                 1.328
7  CNc1ncnc2c1ncn2[C@H]1C[C@H](OP(=O)(O)O)[C@@H](COP(=O)(O)O)O1 [MRS 2179]      Z score                −1.246
8  C[C@]12CC[C@@H]3c4ccc(O)cc4CC[C@H]3[C@@H]1CCC2=O [Estrone]      Z score                 0.041

Values were extracted from patent US8058243B2.
